Cited source for all entries: patent EP3833345B1

# Test system: Caco-2 cells
# protocol: cytotoxicity in Caco-2 cells (lactate dehydrogenase (LDH) kit)
# Type: cell-based
# measurement_parameters: single addition; average over control and different concentrations of inhibitor
measured_property: average percent of dead cells, Caco-2

Look up and report average percent of dead cells, Caco-2, with Caco-2 cells as system, for O=C(CCS(=O)(=O)c1ccccc1)Nc1nnc(-c2ccno2)o1
3,97±0,18%

Provide average percent of dead cells, Caco-2, tested on Caco-2 cells, for O=C(CCS(=O)(=O)c1ccc(Cl)cc1)Nc1nnc(-c2ccno2)o1 .
4,95±0,27%

State the measured average percent of dead cells, Caco-2 (Caco-2 cells) of COc1ccc(-c2cccc(-c3ccn(Cc4noc(C)n4)n3)c2)nn1
3,33±0,14%

Look up Caco-2 cells data: average percent of dead cells, Caco-2 of O=C(CSc1nnc(-c2ccc3c(c2)OCO3)o1)Nc1ccon1 , then report it.
3,99±0,08%

Look up Caco-2 cells data: average percent of dead cells, Caco-2 of CS(=O)(=O)Nc1nnc(NC(=O)c2ccc3[nH]c4c(c3c2)CCCC4)s1 , then report it.
3,35±0,08%

====

# Test system: Caco-2 cells
# protocol: cytotoxicity in Caco-2 cells (lactate dehydrogenase (LDH) kit)
# Format: cell-based
# measurement_parameters: sequential addition at 24-hour intervals, 92 hours; average over medium without and with inhibitor
measured_property: average percentages of dead cells, Caco-2, sequential re-insertion

For Caco-2 cells, give the measured average percentages of dead cells, Caco-2, sequential re-insertion of the entry COc1ccc(-c2cccc(-c3ccn(Cc4noc(C)n4)n3)c2)nn1
5,05±0,62%

Provide average percentages of dead cells, Caco-2, sequential re-insertion, tested on Caco-2 cells, for O=C(CCS(=O)(=O)c1ccc(Cl)cc1)Nc1nnc(-c2ccno2)o1 .
4,57±0,04%

Return reported average percentages of dead cells, Caco-2, sequential re-insertion for target or system Caco-2 cells, item O=C(CSc1nnc(-c2ccc3c(c2)OCO3)o1)Nc1ccon1 .
5,38±0,4%

Check Caco-2 cells data and give average percentages of dead cells, Caco-2, sequential re-insertion for CS(=O)(=O)Nc1nnc(NC(=O)c2ccc3[nH]c4c(c3c2)CCCC4)s1 .
4,05±0,54%

====

# tested_on: modified (70 kDa) 6-phosphofructo-1-kinase (PFK-L), sfPFK-L (Homo sapiens, UniProt P17858)
# Sequence (P17858 1-645 limits assumed): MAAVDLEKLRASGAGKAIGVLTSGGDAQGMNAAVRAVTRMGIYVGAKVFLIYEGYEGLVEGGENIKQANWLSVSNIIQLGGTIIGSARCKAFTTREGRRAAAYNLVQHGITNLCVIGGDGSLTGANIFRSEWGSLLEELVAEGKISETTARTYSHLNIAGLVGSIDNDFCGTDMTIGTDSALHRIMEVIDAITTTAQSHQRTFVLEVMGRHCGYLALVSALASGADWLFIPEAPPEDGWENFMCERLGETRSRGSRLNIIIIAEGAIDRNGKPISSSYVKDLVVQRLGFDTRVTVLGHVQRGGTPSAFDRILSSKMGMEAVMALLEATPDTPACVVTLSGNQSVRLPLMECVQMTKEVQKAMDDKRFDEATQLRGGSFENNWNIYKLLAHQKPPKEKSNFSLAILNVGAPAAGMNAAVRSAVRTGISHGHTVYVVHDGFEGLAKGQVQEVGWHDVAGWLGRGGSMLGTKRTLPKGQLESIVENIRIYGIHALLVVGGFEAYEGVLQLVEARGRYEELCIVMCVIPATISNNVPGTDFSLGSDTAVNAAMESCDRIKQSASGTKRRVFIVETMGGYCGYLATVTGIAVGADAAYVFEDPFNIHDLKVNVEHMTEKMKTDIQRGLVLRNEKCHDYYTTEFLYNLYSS
# protocol: in vitro inhibition of purified recombinant modified PFK-L fragment
For each record, write down the corresponding IC50.
Give a bare numeral; the unit µM is implied.

Please report IC50 for the following molecule: O=C(CCS(=O)(=O)c1ccccc1)Nc1nnc(-c2ccno2)o1
8

State its IC50 for this molecule: Nc1nnc(-c2cc(-c3ccc(O)cc3)on2)o1
10

====

# Tested on: MDA-MB-231 cells
# protocol: cytotoxicity in MDA-MB-231 cells (LDH kit)
# Type: cell-based
# measurement_parameters: single addition; average over control and different concentrations of inhibitor
Provide the recorded average percent of dead MDA-MB-231 cells for the entries that follow.

Answer with reported average percent of dead MDA-MB-231 cells of O=C(Nc1nnc(-c2ccno2)o1)[C@H]1COc2ccccc2O1
6,87±0,44%

Check the records and state average percent of dead MDA-MB-231 cells for O=C(CCS(=O)(=O)c1ccc(Cl)cc1)Nc1nnc(-c2ccno2)o1
3,37±0,39%

Identify average percent of dead MDA-MB-231 cells associated with the compound Nc1nnc(-c2cc(-c3ccc(O)cc3)on2)o1
3,4±0,21%

Find the measured average percent of dead MDA-MB-231 cells of O=C(CSc1nnc(-c2ccc3c(c2)OCO3)o1)Nc1ccon1 and report it.
7,2±0,47%

Return value of average percent of dead MDA-MB-231 cells for input CS(=O)(=O)Nc1nnc(NC(=O)c2ccc3[nH]c4c(c3c2)CCCC4)s1 , no commentary.
2,98±0,2%

Look up and report measured average percent of dead MDA-MB-231 cells for this entry: COc1ccc(-c2cccc(-c3ccn(Cc4noc(C)n4)n3)c2)nn1
6,59±0,29%
